# System: LS-1034 (Colorectal Carcinoma)
# assay overview: Bliss excess, mean over the matrix (fraction); higher = more synergy
endpoint: Bliss excess
Kindly provide the number alone.

As a guide, the following entries are already answered.
Cc1cc2ncnn2cc1Nc1ncc2c(n1)n(C1CCOCC1)c(=O)n2C [AZD7648] + CCN(CCO)CCCOc1ccc2c(Nc3cc(CC(=O)Nc4cccc(F)c4)[nH]n3)ncnc2c1 [AZD2811] (first compound max 10 µM, 7x7, partner max 1 µM) : 0.0104
COc1cccc2c1C(=O)c1c(O)c3c(c(O)c1C2=O)C[C@@](O)(C(=O)CO)C[C@@H]3O[C@H]1C[C@H](N)[C@H](O)[C@H](C)O1 [Doxorubicin] + Cc1cc2ncnn2cc1Nc1ncc2c(n1)n(C1CCOCC1)c(=O)n2C [AZD7648] (first compound max 1 µM, 7x7, partner max 10 µM) : 0.0055
N#Cc1cnc(Nc2cc(NC[C@H]3CNCCO3)c(C(F)(F)F)cn2)cn1 [SRA737] + Nc1ccn([C@@H]2O[C@H](CO)[C@@H](O)C2(F)F)c(=O)n1 [Gemcitabine] (first compound max 10 µM, 7x7, partner max 0.3 µM) : 0.145

# query: Bliss excess of entry COc1cccc(OCCCN)c1-c1cc(Nc2cnc(C#N)cn2)n[nH]1 [Prexasertib] + Cc1cc2ncnn2cc1Nc1ncc2c(n1)n(C1CCOCC1)c(=O)n2C [AZD7648] (first compound max 1 µM, 7x7, partner max 10 µM) -0.0229

* * *

# Test system: PL4 (Pancreatic Carcinoma)
# assay overview: Bliss excess, mean over the matrix (fraction); higher = more synergy
endpoint: Bliss excess
Kindly provide the number alone.

CN(C)CCCOc1ccc(-c2ccc3ncc4c(c3c2)n(C2CCOCC2)c(=O)n4C)cn1 [AZD0156] + O=C(c1cc(Cc2n[nH]c(=O)c3ccccc23)ccc1F)N1CCN(C(=O)C2CC2)CC1 [Olaparib] (first compound max 3 µM, partner max 3 µM) : 0.018

Alright, here's another compound for you.
# query: Bliss excess of entry CN(CCO)CC[C@H](CSc1ccccc1)Nc1ccc(S(=O)(=O)NC(=O)c2ccc(N3CCC([C@@H](O)c4ccccc4-c4ccc(Cl)cc4)CC3)cc2)cc1S(=O)(=O)C(F)(F)F [AZD4320] + C[C@@H](Nc1cc(F)cc(F)c1)c1cc(C(=O)N(C)C)cc2c(=O)cc(N3CCOCC3)oc12 [AZD8186] (first compound max 1 µM, 7x7, partner max 3 µM) -0.0411

* * *

# System: NCI-H226 (Mesothelioma)
# assay overview: combination Emax (second highest fraction inhibited in the dose matrix, 72 h); higher = more inhibition; extreme values may be limits of the assay
Rule: combination Emax of 0.2 or more gives Fulfilled; anything lower gives Not fulfilled.

Field: example entries. Status: answers known.
N#Cc1cnc(Nc2cc(NC[C@H]3CNCCO3)c(C(F)(F)F)cn2)cn1 [SRA737] + O=c1[nH]cc(F)c(=O)[nH]1 [5-Fluorouracil] (first compound max 10 µM, 7x7, partner max 20 µM) : Not fulfilled
O=C(c1cc(Cc2n[nH]c(=O)c3ccccc23)ccc1F)N1CCN(C(=O)C2CC2)CC1 [Olaparib] + COc1nnc2ccc(N3CCC(c4ccc(OCCN5CCN(C)C(=O)[C@H]5C)cc4)CC3)nn12 [AZD5153] (first compound max 10 µM, 7x7, partner max 1 µM) : Fulfilled
O=C(c1cc(Cc2n[nH]c(=O)c3ccccc23)ccc1F)N1CCN(C(=O)C2CC2)CC1 [Olaparib] + Cc1c2c(nn1C)CSCc1cc(n(C)n1)CSc1cc(c3ccccc3c1)OCCCc1c(C(=O)O)n(C)c3c-2c(Cl)ccc13 [AZD5991] (first compound max 10 µM, 7x7, partner max 1 µM) : Not fulfilled
COc1cccc2c1C(=O)c1c(O)c3c(c(O)c1C2=O)C[C@@](O)(C(=O)CO)C[C@@H]3O[C@H]1C[C@H](N)[C@H](O)[C@H](C)O1 [Doxorubicin] + Cc1cc2ncnn2cc1Nc1ncc2c(n1)n(C1CCOCC1)c(=O)n2C [AZD7648] (first compound max 1 µM, 7x7, partner max 10 µM) : Fulfilled

Decide: is the reported value of combination Emax for Cc1cc2ncnn2cc1Nc1ncc2c(n1)n(C1CCOCC1)c(=O)n2C [AZD7648] + CCN(CCO)CCCOc1ccc2c(Nc3cc(CC(=O)Nc4cccc(F)c4)[nH]n3)ncnc2c1 [AZD2811] (first compound max 10 µM, 7x7, partner max 1 µM) equal to or greater than 0.2? Fulfilled

Decide: is the reported value of combination Emax for CC(=O)c1c(C)c2cnc(Nc3ccc(N4CCNCC4)cn3)nc2n(C2CCCC2)c1=O [Palbociclib] + Cn1cnc2c(F)c(Nc3ccc(Br)cc3Cl)c(C(=O)NOCCO)cc21 [Selumetinib] (first compound max 10 µM, 7x7, partner max 10 µM) equal to or greater than 0.2? Fulfilled

Decide: is the reported value of combination Emax for NC1(C(=O)N[C@@H](CCO)c2ccc(Cl)cc2)CCN(c2ncnc3[nH]ccc23)CC1 [Capivasertib] + COc1nnc2ccc(N3CCC(c4ccc(OCCN5CCN(C)C(=O)[C@H]5C)cc4)CC3)nn12 [AZD5153] (first compound max 10 µM, 7x7, partner max 1 µM) equal to or greater than 0.2? Fulfilled

Attribution: the supplement of paper PMC11061612
